target: Transforming growth factor beta-1 proprotein/Mothers against decapentaplegic homolog 3 (Mus musculus) (UniProt P04202+Q8BUN5); test: Inhibition of TGF-beta1/smad3 signaling pathway in mouse NIH/3T3 cells at 10 uM after 18 hrs by CAGA-luciferase reporter gene assay relative to control; format: cell-based
Sequence (P04202 279-390 limits assumed): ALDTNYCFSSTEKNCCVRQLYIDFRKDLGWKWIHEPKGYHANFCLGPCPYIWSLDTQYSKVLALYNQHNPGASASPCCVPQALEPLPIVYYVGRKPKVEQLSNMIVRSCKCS
Sequence (Q8BUN5 2-425 partner limits assumed): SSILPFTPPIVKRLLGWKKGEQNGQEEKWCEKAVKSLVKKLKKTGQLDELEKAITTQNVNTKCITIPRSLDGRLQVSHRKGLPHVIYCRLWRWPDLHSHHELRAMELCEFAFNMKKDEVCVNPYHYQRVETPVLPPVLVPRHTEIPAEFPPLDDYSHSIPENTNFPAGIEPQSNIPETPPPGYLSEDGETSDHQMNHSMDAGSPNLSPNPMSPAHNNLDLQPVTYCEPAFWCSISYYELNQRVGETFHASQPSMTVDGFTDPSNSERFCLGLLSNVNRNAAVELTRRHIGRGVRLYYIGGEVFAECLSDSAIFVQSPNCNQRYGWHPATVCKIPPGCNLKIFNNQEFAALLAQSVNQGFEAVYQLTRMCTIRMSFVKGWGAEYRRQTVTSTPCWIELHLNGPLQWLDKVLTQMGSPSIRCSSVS
attribute_measured: inhibition (%)

(I) C=C1C(=O)O[C@@H]2C[C@@]3(C)CC[C@@H](OC(=O)CCCCCCC)[C@]4(CO4)[C@@H]3C[C@H]12
(II) C=C1C(=O)O[C@@H]2C[C@@]3(C)CC[C@@H](OC(C)=O)C(=C)[C@@H]3C[C@H]12
(III) C=C1C(=O)O[C@@H]2C[C@@]3(C)CC[C@@H](OC(=O)/C=C/C(=O)OCC)[C@]4(CO4)[C@@H]3C[C@H]12
(IV) C=C1C(=O)O[C@@H]2C[C@@]3(C)CCC[C@]4(CO4)[C@@H]3C[C@H]12
## Task // TODO: order the 4 molecules above by inhibition, descending Provide your answer as the labels ordered per the instruction.
## Result III, II, IV, I

Data origin: ChEMBL document CHEMBL4270598
